The compounds listed here are annotated with their LD50.
METHOD_DESCRIPTION: Acute toxicity, LD50 lethal dose after oral administration to mice
Type: in vivo
CONDITION_PARAMETERS: mouse, in vivo, po, orally
Just the number in mg/kg, nothing appended.

COc1cc(C(=O)CC(O)C(=O)O)cc(OC)c1OC (centres unmarked): 1000
COc1cc(OC)c(C(=O)/C=C/C(=O)O)cc1OC: 600
COc1cc(OC)c(C(=O)CC(O)C(=O)O)cc1OC (centres unmarked): 1000
COc1cc(OC)c(C(=O)/C=C/C(=O)O)c(OC)c1: 200

Could you now look at the following compound, please?
Challenge: GET /values?readout=LD50&item= COc1cc(C(=O)/C=C/C(=O)O)cc(OC)c1OC
Response given: 600
